Molecular target: BChE (horse serum source) (Equus caballus, UniProt P81908)
Sequence (P81908 whole entry): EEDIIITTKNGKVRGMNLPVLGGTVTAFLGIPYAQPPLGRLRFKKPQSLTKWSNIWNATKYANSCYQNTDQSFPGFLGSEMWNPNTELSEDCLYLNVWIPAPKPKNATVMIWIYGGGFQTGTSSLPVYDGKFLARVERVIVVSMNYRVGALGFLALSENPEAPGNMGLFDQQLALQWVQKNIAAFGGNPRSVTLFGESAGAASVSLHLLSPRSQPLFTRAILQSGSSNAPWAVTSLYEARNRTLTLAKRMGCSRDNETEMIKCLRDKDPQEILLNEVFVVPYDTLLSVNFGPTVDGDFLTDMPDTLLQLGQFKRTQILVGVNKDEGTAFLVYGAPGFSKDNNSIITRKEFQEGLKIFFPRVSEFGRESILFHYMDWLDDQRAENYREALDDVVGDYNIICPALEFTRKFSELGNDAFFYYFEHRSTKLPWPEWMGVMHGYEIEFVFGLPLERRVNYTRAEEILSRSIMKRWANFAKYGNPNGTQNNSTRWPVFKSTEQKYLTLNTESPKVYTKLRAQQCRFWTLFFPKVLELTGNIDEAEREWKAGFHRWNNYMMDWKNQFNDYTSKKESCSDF
Assay: biochemical
Settings: evaluated up to 100 µg/mL; means ± SEM of three measurements; read-out: BChE IC50 (converted)
Each entry below lists one item and its recorded IC50 value.
reportedEndpoint: IC50 (µM)

molecule="COc1cc2c(=O)oc3c(OC)c(O[C@@H]4OC[C@@H](O)[C@H](O)[C@H]4O)cc4c(=O)oc(c1OC)c2c34 [Compound 2]" testedsystem="BChE (horse serum source) (Equus caballus, UniProt P81908)" reportedendpoint=IC50 comparisonsign=> valuereported=210
molecule="COc1c(O)cc2c(=O)oc3c(OC)c(O[C@@H]4O[C@H](CO)[C@@H](O)[C@H](O)[C@H]4O)cc4c(=O)oc1c2c34 [Compound 4]" testedsystem="BChE (horse serum source) (Equus caballus, UniProt P81908)" reportedendpoint=IC50 comparisonsign== valuereported=182
molecule="CC1(C)CC[C@]2(C(=O)O[C@@H]3O[C@H](CO)[C@@H](O)[C@H](O)[C@H]3O)CC[C@]3(C)C(=CC[C@@H]4[C@@]5(C)C[C@@H](O)[C@H](O)[C@@](C)(CO)[C@@H]5CC[C@]43C)[C@@H]2[C@@H]1O [Compound 10, arjunglucoside I]" testedsystem="BChE (horse serum source) (Equus caballus, UniProt P81908)" reportedendpoint=IC50 comparisonsign=> valuereported=150
molecule="COc1c(O)cc2c(=O)oc3c(OC)c(O)cc4c(=O)oc1c2c34 [Compound 1, 3,3′-di-O-methyl ellagic acid]" testedsystem="BChE (horse serum source) (Equus caballus, UniProt P81908)" reportedendpoint=IC50 comparisonsign== valuereported=153
molecule="CC1(C)CC[C@]2(C(=O)O[C@@H]3O[C@H](CO)[C@@H](O)[C@H](O)[C@H]3O)CC[C@]3(C)C(=CC[C@@H]4[C@@]5(C)C[C@@H](O)[C@H](O)[C@@](C)(CO)[C@@H]5[C@H](O)C[C@]43C)[C@@H]2C1 [Compound 11, chebuloside II]" testedsystem="BChE (horse serum source) (Equus caballus, UniProt P81908)" reportedendpoint=IC50 comparisonsign=> valuereported=150

----------
Target: α-glucosidase (fungal source from Saccharomyces cerevisiae)
Test: α-Glucosidase inhibitory assay (PNPG)
Type: biochemical
Set-up: unit not given beside the values
Conditions: Table 2, repeats Table 1; unit not given
reportedEndpoint: IC50 ± SEM (α-glucosidase)

compound=COc1c(O)cc2c(=O)oc3c(OC)c(O)cc4c(=O)oc1c2c34 testedsystem="α-glucosidase (fungal source from Saccharomyces cerevisiae)" comparisonsign== valuereported=74.18
compound=CC1(C)CC[C@]2(C(=O)O)CC[C@]3(C)C(=CC[C@@H]4[C@@]5(C)C[C@@H](O)[C@H](O)[C@@](C)(CO)[C@@H]5CC[C@]43C)[C@@H]2[C@@H]1O testedsystem="α-glucosidase (fungal source from Saccharomyces cerevisiae)" comparisonsign== valuereported=192.17
compound=CC1(C)CC[C@]2(C(=O)O)CC[C@]3(C)C(=CC[C@@H]4[C@@]5(C)C[C@@H](O)[C@H](O)[C@@](C)(CO)[C@@H]5[C@H](O)C[C@]43C)[C@@H]2C1 testedsystem="α-glucosidase (fungal source from Saccharomyces cerevisiae)" comparisonsign== valuereported=155.84
compound="CC1(C)CCC2(C(=O)OC3OC(CO)C(O)C(O)C3O)CCC3(C)C(=CCC4C5(C)CC(O)C(O)C(C)(C)C5CCC43C)C2C1O (centres unmarked) [Compound 9, 24-deoxysericoside]" testedsystem="α-glucosidase (fungal source from Saccharomyces cerevisiae)" comparisonsign=> valuereported=200
compound=COc1cc2c(=O)oc3c(OC)c(O[C@@H]4OC[C@@H](O)[C@H](O)[C@H]4O)cc4c(=O)oc(c1OC)c2c34 testedsystem="α-glucosidase (fungal source from Saccharomyces cerevisiae)" comparisonsign== valuereported=121.51
compound=COc1cc2c(=O)oc3c(OC)c(O[C@@H]4O[C@H](CO)[C@@H](O)[C@H](O)[C@H]4O)cc4c(=O)oc(c1OC)c2c34 testedsystem="α-glucosidase (fungal source from Saccharomyces cerevisiae)" comparisonsign== valuereported=137.51
compound="CC1OC(Oc2c(-c3cc(O)c(O)c(O)c3)oc3cc(O)cc(O)c3c2=O)C(O)C(O)C1O (centres unmarked) [Compound 5, myricetin-3-O-rhamnoside]" testedsystem="α-glucosidase (fungal source from Saccharomyces cerevisiae)" comparisonsign== valuereported=69.02
compound="CC1(C)CC[C@]2(C(=O)O[C@@H]3O[C@H](CO)[C@@H](O)[C@H](O)[C@H]3O)CC[C@]3(C)C(=CC[C@@H]4[C@@]5(C)C[C@@H](O)[C@H](O)[C@@](C)(CO)[C@@H]5CC[C@]43C)[C@@H]2[C@@H]1O [Compound 10, arjunglucoside I]" testedsystem="α-glucosidase (fungal source from Saccharomyces cerevisiae)" comparisonsign=> valuereported=200
compound=COc1c(O)cc2c(=O)oc3c(OC)c(O[C@@H]4O[C@H](CO)[C@@H](O)[C@H](O)[C@H]4O)cc4c(=O)oc1c2c34 testedsystem="α-glucosidase (fungal source from Saccharomyces cerevisiae)" comparisonsign== valuereported=97.75
compound="CC1(C)CC[C@]2(C(=O)O[C@@H]3O[C@H](CO)[C@@H](O)[C@H](O)[C@H]3O)CC[C@]3(C)C(=CC[C@@H]4[C@@]5(C)C[C@@H](O)[C@H](O)[C@@](C)(CO)[C@@H]5[C@H](O)C[C@]43C)[C@@H]2C1 [Compound 11, chebuloside II]" testedsystem="α-glucosidase (fungal source from Saccharomyces cerevisiae)" comparisonsign=> valuereported=200
compound=O=C(O)C1=C[C@@H](O)[C@@H](O)[C@H](O)C1 testedsystem="α-glucosidase (fungal source from Saccharomyces cerevisiae)" comparisonsign=> valuereported=200
